Collected IC50 for SYK kinase (Homo sapiens, UniProt P43405) across several studies; compounds listed below.

Compound	IC50
Cc1noc(C)c1-c1cc2nccc(-c3c(C)noc3C)c2o1	3000 to 50000 nM
CC(C)n1ncc(Nc2nc(C3CC3)nc3cn[nH]c23)c1Cl	100 to 1000 nM
CC(C)C(C)n1cc(Nc2nc(C3CC3)nc3cn[nH]c23)cn1 (stereo not drawn)	10 to 100 nM

// each listed compound needs a value for IC50
1. CC1(C)C(=O)NCCN1c1ncc(-c2cccc(Nc3nccc(C(F)(F)F)n3)c2)o1
2. N[C@H]1COCC[C@H]1Nc1nc(/C=C/c2ccc(Cl)cc2)c2c(c1F)CNC2=O
3. COc1cc(-c2cc3nccc(-c4cccc(S(C)(=O)=O)c4)c3o2)cc(OC)c1OC
4. CN(C)c1ccc(-c2cc3nccnc3c(OC[C@@H]3CN(C(=O)CO)CCO3)n2)cc1
5. Cc1ccc(-n2nc(C(C)(C)C)cc2NC(=O)Nc2ccc(OCc3ccnc(Nc4cnc(C)c(C)n4)c3)c3ccccc23)cc1
6. COc1cccc2nc(Nc3ccc(-c4cnco4)cc3)c3[nH]ncc3c12

[out]
["≤ 100 nM", "2 nM", "< 300 nM", "32 nM", "> 16000 nM", "100 to 1000 nM"]
